Target: human recombinant histamine H1 receptor (Homo sapiens, UniProt P35367)
Construct: expressed in transfected cells; host or cells: CHO cells
Sequence (P35367 whole entry): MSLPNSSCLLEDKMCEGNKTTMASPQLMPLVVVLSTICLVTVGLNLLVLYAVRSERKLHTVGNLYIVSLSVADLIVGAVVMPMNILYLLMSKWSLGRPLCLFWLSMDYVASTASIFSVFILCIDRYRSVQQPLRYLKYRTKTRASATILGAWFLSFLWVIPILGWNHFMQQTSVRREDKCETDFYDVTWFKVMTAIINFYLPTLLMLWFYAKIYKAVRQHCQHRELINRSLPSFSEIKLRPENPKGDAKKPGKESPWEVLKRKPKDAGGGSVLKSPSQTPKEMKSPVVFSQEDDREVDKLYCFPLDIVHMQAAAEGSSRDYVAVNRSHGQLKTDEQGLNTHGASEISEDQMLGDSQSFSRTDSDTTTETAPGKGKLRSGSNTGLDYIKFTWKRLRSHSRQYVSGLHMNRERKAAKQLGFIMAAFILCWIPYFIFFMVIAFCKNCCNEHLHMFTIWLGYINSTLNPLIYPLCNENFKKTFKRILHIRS
Test: Histamine H1 radioligand binding ([3H]Pyrilamine)
Settings: 10 nM (0.01 μM) compound; […] [3H]Pyrilamine; read-out: Histamine Binding H1, percent inhibition of specific binding
Documented inhibition at 0.01 µM across a set of compounds
The response must be a number in % with no trailing unit.

Check out these entries, answers already filled in.
> print(dat)
                                   compound  data.value
1  Cc1ccc2c(c1)c1c(n2CCc2ccccc2F)CCN(C)C1 [Compound 34]          22
2  Cc1ccc2c(c1)c1c(n2CCc2ccc(F)cc2)CCN(C)C1 [Compound 33]          46
3  Cc1ccc2c(c1)c1c(n2CCC2CCCCC2)CCN(C)C1 [Compound 163]          59
4  Cc1ccc2c(c1)c1c(n2CCc2ccc(Cl)cc2)CCN(C)C1 [Compound 32]          52
5  FC(F)(F)c1ccc2c(c1)c1c(n2CCc2noc(-c3ccccc3)n2)CCN(C2CC2)C1 [Compound 222]          85
6  Cc1ccc2c(c1)c1c(n2CCc2ccncc2)CCN(C)C1 [Compound 22]          36

Now take the following compound into account.
Asked: Request: inhibition at 0.01 µM, test system human recombinant histamine H1 receptor (Homo sapiens, UniProt P35367), entry CN1CCc2c(c3cc(Cl)ccc3n2CCc2ccccc2)C1 [Compound 36]
Given back: 48
